Hi there, I'd appreciate the recorded MIC for every entry that follows.
- Tested on: Staphylococcus aureus
- ASSAY_OVERVIEW: Antibacterial activity against methicillin-resistant Staphylococcus aureus ATCC 33591 after 24 hrs
- Format: functional
- ASSAY_CONDITIONS: ATCC 33591, 24 h
Positions of bridges follow the written chain, without caps; N, C: chain ends. Non-standard residues stand in square brackets, D forms with d. Residues, ends and D or L forms follow the SMILES beside them. dNMeF = CN[C@H](Cc1ccccc1)C(=O)O
Numbers only, in µg/mL.

For orientation, consider the following solved cases.
- COMPOUND: "CC[C@@H](C)[C@@H](NC(=O)[C@@H](CCCNC(=N)N)NC(=O)[C@H](CCCNC(=N)N)NC(=O)[C@@H](NC(=O)[C@@H](Cc1ccccc1)NC)[C@@H](C)CC)C(=O)N[C@H](C(=O)N[C@@H](CO)C(=O)N[C@H]1C(=O)N[C@@H](C)C(=O)N[C@@H](CC(C)C)C(=O)N[C@@H]([C@@H](C)CC)C(=O)O[C@H]1C)[C@@H](C)CC (H-[dNMeF]IR[dR][dI]IS[dT]ALI; ester 8-C)"
  REPORTED: 0.25
- COMPOUND: "CC[C@@H](C)[C@@H](NC(=O)[C@@H](CCCNC(=N)N)NC(=O)[C@H](CO)NC(=O)[C@@H](NC(=O)[C@@H](Cc1ccccc1)NC)[C@@H](C)CC)C(=O)N[C@H](C(=O)N[C@@H](CO)C(=O)N[C@H]1C(=O)N[C@@H](C)C(=O)N[C@@H](CC(C)C)C(=O)N[C@@H]([C@@H](C)CC)C(=O)O[C@H]1C)[C@@H](C)CC"
  REPORTED: 0.125
- COMPOUND: "CC[C@@H](C)[C@@H](NC(=O)[C@@H](CCCNC(=N)N)NC(=O)[C@H](CCCNC(=N)N)NC(=O)[C@@H](NC(=O)[C@@H](Cc1ccccc1)NC)[C@@H](C)CC)C(=O)N[C@H](C(=O)N[C@@H](CO)C(=O)N[C@H]1C(=O)N[C@@H](CCCNC(=N)N)C(=O)N[C@@H](CC(C)C)C(=O)N[C@@H]([C@@H](C)CC)C(=O)O[C@H]1C)[C@@H](C)CC (H-[dNMeF]IR[dR][dI]IS[dT]RLI; ester 8-C)"
  REPORTED: 1
- COMPOUND: "CC[C@@H](C)[C@@H](NC(=O)[C@@H](CCC(N)=O)NC(=O)[C@H](CO)NC(=O)[C@@H](NC(=O)[C@@H](Cc1ccccc1)NC)[C@@H](C)CC)C(=O)N[C@H](C(=O)N[C@@H](CO)C(=O)N[C@H]1C(=O)N[C@@H](C)C(=O)N[C@@H](CC(C)C)C(=O)N[C@@H]([C@@H](C)CC)C(=O)O[C@H]1C)[C@@H](C)CC"
  REPORTED: 0.25
- COMPOUND: "CC[C@@H](C)[C@@H](NC(=O)[C@@H](CCC(N)=O)NC(=O)[C@H](CCCNC(=N)N)NC(=O)[C@@H](NC(=O)[C@@H](Cc1ccccc1)NC)[C@@H](C)CC)C(=O)N[C@H](C(=O)N[C@@H](CO)C(=O)N[C@H]1C(=O)N[C@@H](C)C(=O)N[C@@H](CC(C)C)C(=O)N[C@@H]([C@@H](C)CC)C(=O)O[C@H]1C)[C@@H](C)CC (H-[dNMeF]IR[dQ][dI]IS[dT]ALI; ester 8-C)"
  REPORTED: 0.125

Below: the item to evaluate.
The recorded MIC for entry CC[C@@H](C)[C@@H](NC(=O)[C@@H](CCCNC(=N)N)NC(=O)[C@H](CO)NC(=O)[C@@H](NC(=O)[C@@H](Cc1ccccc1)NC)[C@@H](C)CC)C(=O)N[C@H](C(=O)N[C@@H](CO)C(=O)N[C@H]1C(=O)N[C@@H](CCCNC(=N)N)C(=O)N[C@@H](CC(C)C)C(=O)N[C@@H]([C@@H](C)CC)C(=O)O[C@H]1C)[C@@H](C)CC (H-[dNMeF]IS[dR][dI]IS[dT]RLI; ester 8-C) equals 1
